system-name: PDE6 in bovine retina (Bos taurus, UniProt P11541+P23439)
Construct: obtained by suitably treating various tissues and separating the enzyme with FPLC; from tissue; host or cells: bovine retina
Sequence (P11541 2-856 limits assumed): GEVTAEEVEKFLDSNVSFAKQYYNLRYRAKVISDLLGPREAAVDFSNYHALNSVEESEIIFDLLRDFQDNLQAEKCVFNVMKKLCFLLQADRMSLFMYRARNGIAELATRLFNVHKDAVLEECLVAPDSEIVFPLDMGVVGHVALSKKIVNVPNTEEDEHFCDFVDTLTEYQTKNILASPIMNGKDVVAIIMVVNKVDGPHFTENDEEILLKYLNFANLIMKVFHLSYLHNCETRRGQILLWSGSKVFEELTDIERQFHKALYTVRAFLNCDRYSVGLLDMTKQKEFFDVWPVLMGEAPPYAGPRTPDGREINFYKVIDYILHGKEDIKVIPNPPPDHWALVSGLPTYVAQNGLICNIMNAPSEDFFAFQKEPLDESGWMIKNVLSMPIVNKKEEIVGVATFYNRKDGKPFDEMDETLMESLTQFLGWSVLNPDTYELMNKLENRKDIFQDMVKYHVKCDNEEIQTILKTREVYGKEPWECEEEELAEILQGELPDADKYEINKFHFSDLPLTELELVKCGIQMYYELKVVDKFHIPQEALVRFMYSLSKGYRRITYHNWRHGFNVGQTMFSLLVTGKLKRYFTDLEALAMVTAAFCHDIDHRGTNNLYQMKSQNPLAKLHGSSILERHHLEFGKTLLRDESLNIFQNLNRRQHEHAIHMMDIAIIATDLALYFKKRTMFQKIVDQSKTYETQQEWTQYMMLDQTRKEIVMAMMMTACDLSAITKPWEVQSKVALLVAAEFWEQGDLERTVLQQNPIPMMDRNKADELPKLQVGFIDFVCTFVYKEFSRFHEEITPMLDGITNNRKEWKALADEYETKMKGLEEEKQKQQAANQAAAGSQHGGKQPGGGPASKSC
Sequence (P23439 2-850 limits assumed): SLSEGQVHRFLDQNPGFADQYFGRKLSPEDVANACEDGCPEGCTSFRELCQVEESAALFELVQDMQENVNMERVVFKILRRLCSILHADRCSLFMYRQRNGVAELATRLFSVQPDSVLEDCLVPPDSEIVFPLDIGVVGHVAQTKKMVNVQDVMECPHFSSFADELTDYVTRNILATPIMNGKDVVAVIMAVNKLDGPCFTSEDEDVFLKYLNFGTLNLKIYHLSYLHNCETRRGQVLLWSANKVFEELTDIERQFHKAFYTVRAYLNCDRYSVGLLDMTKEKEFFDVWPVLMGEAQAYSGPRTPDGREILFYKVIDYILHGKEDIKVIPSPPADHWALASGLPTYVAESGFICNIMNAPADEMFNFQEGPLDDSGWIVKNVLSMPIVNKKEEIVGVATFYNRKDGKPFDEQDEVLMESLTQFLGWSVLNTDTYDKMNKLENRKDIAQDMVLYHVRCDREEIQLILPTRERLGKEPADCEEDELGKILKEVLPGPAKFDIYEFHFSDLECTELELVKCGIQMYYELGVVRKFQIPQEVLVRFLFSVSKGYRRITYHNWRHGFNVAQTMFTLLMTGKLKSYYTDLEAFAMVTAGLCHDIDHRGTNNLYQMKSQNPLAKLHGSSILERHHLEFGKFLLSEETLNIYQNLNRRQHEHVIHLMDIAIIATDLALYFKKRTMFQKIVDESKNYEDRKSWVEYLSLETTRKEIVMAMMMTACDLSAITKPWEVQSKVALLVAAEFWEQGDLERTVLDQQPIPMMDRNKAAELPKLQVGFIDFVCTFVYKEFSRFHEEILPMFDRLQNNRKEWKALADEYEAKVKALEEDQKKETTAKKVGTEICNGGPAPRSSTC
measurement-notes: PDE6 enzyme inhibition activity test (scintillation proximity)
Assay type: biochemical
measured-endpoint: pIC50
The scale used: pIC50 is minus the common logarithm of the concentration in molar units.

Ask: Identify the measured pIC50 of CCCOc1ccc(S(=O)(=O)NCCS(=O)(=O)O)cc1-c1nc(CC)c(CC)c(=O)[nH]1 [Example 125] for PDE6 in bovine retina (Bos taurus, UniProt P11541+P23439).
Result: 8.57

###

system-name: human blood platelet PDE5 (Homo sapiens, UniProt O76074)
Construct: obtained by suitably treating various tissues and separating the enzyme with FPLC; from tissue; host or cells: human blood platelets
measurement-notes: PDE5 enzyme inhibition activity test (scintillation proximity)
Format: biochemical
condition-notes: as repeated in the PDE6 table
measured-endpoint: pIC50
Quick note: pIC50 values are minus log10 of concentrations in mol/L.

CCCOc1ccc(C(=O)NC(C)CO)cc1-c1nc(CC)c(CC)c(=O)[nH]1 (stereo not shown)    9.48
CCCOc1ccc(NC(=O)C2CCCN2C(C)=O)cc1-c1nc(CC)c(CC)c(=O)[nH]1 (stereo not shown)    9.27

Ask: What value of measured pIC50 is listed for CCCOc1ccc(C(=O)NC(C)C(=O)N2CCN(C)CC2)cc1-c1nc(CC)c(CC)c(=O)[nH]1 (stereo not shown) ?
Result: 9.40

Ask: Bench note: what pIC50 did `CCCOc1ccc(NC(=O)CC(=O)OCC)cc1-c1nc(CC)c(CC)c(=O)[nH]1` show?
Result: 8.34
